# Tested on: MCF-7 cells
# MEASUREMENT PROTOCOL: Clonogenic survival assay
# Assay type: cell-based, Human
# RUN PARAMETERS: Homo sapiens, MCF7, 240 h, Table 2; 0.1 μM-20 μM for 10 days; read-out: MCF-7 (IC50), clonogenic survival
RECORDED ENDPOINT: IC50 (µM)
Lab book: enter the figure in µM, no units written.

CCCCCCCCCCCCCCNC(=O)[C@H](CO)NC(=O)c1cc(OC)cc(OC)c1    11.2
CCCCCCCCCCCCCCNC(=O)[C@H](CO)NCc1ccccc1    4.97

## Input Could you share which IC50 value was measured for CCCCCCCCCCCCCCNC(=O)[C@H](CO)NC(C)=O ?
## Output 44.7

## Input Could you share which IC50 value was measured for CCCCCCCCCCCCCCNC(=O)[C@H](CO)NC(=O)C(C)(C)C ?
## Output 6.7

## Input Could you share which IC50 value was measured for CCCCCCCCCCCCCCNC(=O)[C@H](CO)NC(=O)C1CCCCC1 ?
## Output 7.2

## Input Could you share which IC50 value was measured for CCCCCCCCCCCCCCNC(=O)[C@H](CO)N=Cc1ccccc1 ?
## Output 4.69
